Ref: paper PMC12363564

- STUDY_TARGET: T1, 6xHis-tagged hPTPRS Fn9 (residues 1117-1270) (human, UniProt Q13332 1117-1270)
- T1 chain: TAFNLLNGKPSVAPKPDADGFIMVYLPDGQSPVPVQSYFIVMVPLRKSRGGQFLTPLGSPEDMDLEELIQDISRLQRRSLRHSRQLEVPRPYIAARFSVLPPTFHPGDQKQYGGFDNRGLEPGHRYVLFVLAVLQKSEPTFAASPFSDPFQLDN
- ASSAY_COMMENT: BLI
Consider the following binders; for each one, report its koff.
A number alone suffices; assume s⁻¹.

Name the reported koff value associated with the binder 13G5 (mouse monoclonal antibody, IgG2b/κ) (antibody, V domains shown, VH of 13G5; constant region of the mouse IgG2b heavy chain; VL of 13G5; constant region of the mouse κ light chain; IgG2b/κ; also called anti-PTPRS Ab 13G5; source: production contracted to Viva Biotech) VH: EVKLVESGGGLVQPGGSLKLSCATSGFTFSDYYMYWVRQTPEKRLEWVAYISNGGGSTYYPDTVKGRFTISRDNAKNTLYLQMSRLKSEDTAMYYCARHVYYGRNYAMDYWGQGTSVTVSS VL: DIQMTQTTSSLSASLGDRVTISCRASQDISNYLNWYQQKPDGTVKLLIYYTSRLHSGVPSRFSGSGSGTDYSLTISNLEQEDIATYFCQQGNTLPYTFGGGTKLEIK
0.003

What does the data say about its koff? Entry: 22H8^HL-scFv-Fc (VH-linker-VL scFv of 22H8 fused to human IgG1 Fc) (scFv, V domains shown, as the VH of m3 (22H8); linker between VH and VL; as the VL of m3 (22H8); ORF synthesized by Genscript and subcloned into pHLsec as a C-terminal hFc fusion; also called 22H8-Fc HL; source: HEK293T, transiently transfected, supernatant; purified (Protein A); not shown: Fc (human IgG1), C-terminal, kept) VH: QVQLQQSGAELARPGASVKLSCKASGYTFTSYWMQWVKQRPGQGLEWIGAIYPGDGDTRYTQKFKGKATLTADKSSSTAYMQLSSLASEDSAVYYCARRIYYGYYYAMDYWGQGTSVTVSS VL: DIVLTQSPASLAVSLGQRATISCKASQSVDYDGDSYMNWYQQKPGQPPKLLIYAASNLESGIPARFSGSGSGTDFTLNIHPVEEEDAATYYCQQSNEDPLTFGAGTKLELK
0.0056

Quick one: koff for 13G5^HL-scFv-Fc (VH-linker-VL scFv of 13G5 fused to human IgG1 Fc) (scFv, V domains shown) VH: EVKLVESGGGLVQPGGSLKLSCATSGFTFSDYYMYWVRQTPEKRLEWVAYISNGGGSTYYPDTVKGRFTISRDNAKNTLYLQMSRLKSEDTAMYYCARHVYYGRNYAMDYWGQGTSVTVSS VL: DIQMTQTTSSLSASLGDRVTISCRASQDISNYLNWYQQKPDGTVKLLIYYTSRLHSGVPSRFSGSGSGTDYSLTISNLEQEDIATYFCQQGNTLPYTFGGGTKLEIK ?
0.00016

Please look up its koff: 22H8 (mouse monoclonal antibody, IgG1/κ) (antibody, V domains shown, VH of 22H8; constant region of the mouse IgG1 heavy chain; VL of 22H8; constant region of the mouse κ light chain; IgG1/κ; source: production contracted to Viva Biotech) VH: QVQLQQSGAELARPGASVKLSCKASGYTFTSYWMQWVKQRPGQGLEWIGAIYPGDGDTRYTQKFKGKATLTADKSSSTAYMQLSSLASEDSAVYYCARRIYYGYYYAMDYWGQGTSVTVSS VL: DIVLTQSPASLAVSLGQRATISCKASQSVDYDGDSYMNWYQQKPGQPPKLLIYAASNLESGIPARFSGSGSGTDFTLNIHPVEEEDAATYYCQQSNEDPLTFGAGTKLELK
0.009
